# assay_name: Pharmacokinetic assay: plasma concentration by LC/MS/MS after single intravenous or peroral dose of 3 mg/kg
# Assay type: in vivo
# conditions: 3 mg/kg IV dosing in mice
Classify: 1 when CL is strictly less than 40 mL/min/kg; -1 when CL is not.

Query: CL under 40 mL/min/kg? Item: NC(=O)c1c(F)ccc(OCc2nc3cc(-c4ccccc4)cnc3s2)c1F
Response: -1

Query: Below 40 mL/min/kg on CL? Entry CCCc1oc(COc2ccc(F)c(C(N)=O)c2F)nc1-c1ccc(Cl)cc1
Response: -1

Query: Does this compound meet the criterion CL < 40 mL/min/kg? CC(Oc1ccc(F)c(C(N)=O)c1F)c1nc(-c2ccc(OC(F)(F)F)cc2)c(Cl)o1 (stereo not shown)
Response: 1

Query: # check: CL < 40 mL/min/kg for CC(Oc1ccc(F)c(C(N)=O)c1F)c1nc(-c2ccc(OC(F)(F)F)cc2)c(Br)o1 (stereo not shown)
Response: 1

Query: Lab log: compare recorded CL with 40 mL/min/kg; is it strictly lower for CC(Oc1ccc(F)c(C(N)=O)c1F)c1nc(-c2ccc(C(F)(F)F)cc2)c(Br)o1 (stereo not shown) ?
Response: 1

Query: Check if CL falls below 40 mL/min/kg for CCOc1cnc2sc(COc3ccc(F)c(C(N)=O)c3F)nc2c1 .
Response: -1

Query: Report whether reported CL is lower than 40 mL/min/kg (strictly) for CCc1oc(COc2ccc(F)c(C(N)=O)c2F)nc1-c1ccc(OC)cc1
Response: -1
